Organism: Rattus norvegicus
Assay: Selectivity ratio of IC50 for BuchE in rat serum to IC50 for AchE in rat cortex
Type: cell-free
endpoint label: Ratio IC50
Give bare numbers.

Below, 5 compounds whose answers are already recorded.
COc1cc2c(cc1OC)C(=O)C(Oc1ccc(C(=O)CCCN3CCCC3)cc1)C2 (configuration not stated)    47.2
COc1cc2c(cc1OC)C(=O)C(Oc1cccc(CCN3CCCCC3)c1)C2 (configuration not stated)    4.52
COc1cc2c(cc1OC)C(=O)C(Oc1ccc(CCCN3CCCCC3)cc1)C2 (configuration not stated)    4.36
CCN(C)CCc1cccc(OC2Cc3cc(OC)c(OC)cc3C2=O)c1 (configuration not stated)    12.2
CCN(CC)CCC(=O)c1cccc(OC2Cc3cc(OC)c(OC)cc3C2=O)c1 (configuration not stated)    0.64

Items follow; give Ratio IC50 for each.
1. CCN(C)CCc1ccc(OC2Cc3cc(OC)c(OC)cc3C2=O)cc1 (configuration not stated)
2. CCN(CC)CCc1ccc(OC2Cc3cc(OC)c(OC)cc3C2=O)cc1 (configuration not stated)
3. CCN(CC)CCCCc1ccc(OC2Cc3cc(OC)c(OC)cc3C2=O)cc1 (configuration not stated)
4. COc1cc2c(cc1OC)C(=O)C(Oc1ccc(CCN3CCCC3)cc1)C2 (configuration not stated)
5. CCN(CC)CC(=O)c1ccc(OC2Cc3cc(OC)c(OC)cc3C2=O)cc1 (configuration not stated)
6. CCN(C)CCC(=O)c1ccc(OC2Cc3cc(OC)c(OC)cc3C2=O)cc1 (configuration not stated)
7. COc1cc2c(cc1OC)C(=O)C(Oc1cccc(C(=O)CCN3CCCC3)c1)C2 (configuration not stated)

Out:
1: 427; 2: 394; 3: 6.77; 4: 816; 5: 8.7; 6: 2440; 7: 13.3

Items follow; give Ratio IC50 for each.
1. CCN(CC)CCCC(=O)c1ccc(OC2Cc3cc(OC)c(OC)cc3C2=O)cc1 (configuration not stated)
2. COc1cc2c(cc1OC)C(=O)C(Oc1cccc(CCN3CCCC3)c1)C2 (configuration not stated)
3. COc1cc2c(cc1OC)C(=O)C(Oc1ccc(C(=O)CN3CCCCC3)cc1)C2 (configuration not stated)
4. CCN(C)CC(=O)c1ccc(OC2Cc3cc(OC)c(OC)cc3C2=O)cc1 (configuration not stated)
5. CCN(CC)CCC(=O)c1ccc(OC2Cc3cc(OC)c(OC)cc3C2=O)cc1 (configuration not stated)
6. CCN(CC)CCCc1ccc(OC2Cc3cc(OC)c(OC)cc3C2=O)cc1 (configuration not stated)

Out:
927
8.69
4.57
18.6
1950
14.4

====

Target: Butyrylcholinesterase (Rattus norvegicus)
Sequence (Q9JKC1 whole entry): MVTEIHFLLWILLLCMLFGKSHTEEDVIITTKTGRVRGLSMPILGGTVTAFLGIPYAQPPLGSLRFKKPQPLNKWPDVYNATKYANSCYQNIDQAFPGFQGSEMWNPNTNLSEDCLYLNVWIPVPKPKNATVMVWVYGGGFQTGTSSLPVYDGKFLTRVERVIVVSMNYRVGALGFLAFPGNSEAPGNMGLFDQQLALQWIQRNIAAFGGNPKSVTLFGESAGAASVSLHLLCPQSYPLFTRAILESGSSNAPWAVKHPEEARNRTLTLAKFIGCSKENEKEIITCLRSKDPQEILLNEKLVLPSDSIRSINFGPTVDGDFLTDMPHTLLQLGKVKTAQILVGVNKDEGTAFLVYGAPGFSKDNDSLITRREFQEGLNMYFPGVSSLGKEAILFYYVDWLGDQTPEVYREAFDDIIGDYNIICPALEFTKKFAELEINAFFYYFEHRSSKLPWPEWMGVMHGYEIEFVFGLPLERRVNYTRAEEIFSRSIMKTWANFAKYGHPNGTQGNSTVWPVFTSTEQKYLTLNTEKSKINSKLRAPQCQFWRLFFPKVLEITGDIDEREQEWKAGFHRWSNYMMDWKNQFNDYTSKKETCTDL
Test: Inhibition of BuchE in rat serum by Ellman's method
Hi there, I'd appreciate the recorded pIC50 for every entry that follows.
One number for each entry, as −log10 of the molar value.

COc1cc2c(cc1OC)C(=O)C(Oc1ccc(C(=O)CN3CCCC3)cc1)C2 (configuration not stated)    5.76
CCN(CC)CCCC(=O)c1ccc(OC2Cc3cc(OC)c(OC)cc3C2=O)cc1 (configuration not stated)    4.42
CCN(C)CCC(=O)c1ccc(OC2Cc3cc(OC)c(OC)cc3C2=O)cc1 (configuration not stated)    5.35

Items follow; give pIC50 for each.
1. COc1cc2c(cc1OC)C(=O)C(Oc1cccc(CCN3CCCC3)c1)C2 (configuration not stated)
2. CCN(C)CCc1cccc(OC2Cc3cc(OC)c(OC)cc3C2=O)c1 (configuration not stated)
3. CCN(CC)CCC(=O)c1ccc(OC2Cc3cc(OC)c(OC)cc3C2=O)cc1 (configuration not stated)

Out:
[4.81, 5.06, 5.82]

====

// pIC50 collected for Acetylcholinesterase (Rattus norvegicus)
Answers are plain numbers, as −log10 of the molar value.

Below, 4 compounds whose answers are already recorded.
COc1cc2c(cc1OC)C(=O)C(Oc1ccc(CCN3CCCC3)cc1)C2 (stereo not given)    7.43
COc1cc2c(cc1OC)C(=O)C(Oc1ccc(CCCN3CCCC3)cc1)C2 (stereo not given)    6.68
CCN(C)CCCC(=O)c1ccc(OC2Cc3cc(OC)c(OC)cc3C2=O)cc1 (stereo not given)    7.42
COc1cc2c(cc1OC)C(=O)C(Oc1ccc(CCN3CCCCC3)cc1)C2 (stereo not given)    7.30

Okay, now this compound:
In: Tell me the measured pIC50 of COc1cc2c(cc1OC)C(=O)C(Oc1ccc(C(=O)CCN3CCCCC3)cc1)C2 (stereo not given) , please.
Out: 7.76

====

Hi there, I'd appreciate the recorded pIC50 for every entry that follows.
Molecular target: Acetylcholinesterase (Rattus norvegicus, UniProt P37136)
Sequence (P37136 whole entry): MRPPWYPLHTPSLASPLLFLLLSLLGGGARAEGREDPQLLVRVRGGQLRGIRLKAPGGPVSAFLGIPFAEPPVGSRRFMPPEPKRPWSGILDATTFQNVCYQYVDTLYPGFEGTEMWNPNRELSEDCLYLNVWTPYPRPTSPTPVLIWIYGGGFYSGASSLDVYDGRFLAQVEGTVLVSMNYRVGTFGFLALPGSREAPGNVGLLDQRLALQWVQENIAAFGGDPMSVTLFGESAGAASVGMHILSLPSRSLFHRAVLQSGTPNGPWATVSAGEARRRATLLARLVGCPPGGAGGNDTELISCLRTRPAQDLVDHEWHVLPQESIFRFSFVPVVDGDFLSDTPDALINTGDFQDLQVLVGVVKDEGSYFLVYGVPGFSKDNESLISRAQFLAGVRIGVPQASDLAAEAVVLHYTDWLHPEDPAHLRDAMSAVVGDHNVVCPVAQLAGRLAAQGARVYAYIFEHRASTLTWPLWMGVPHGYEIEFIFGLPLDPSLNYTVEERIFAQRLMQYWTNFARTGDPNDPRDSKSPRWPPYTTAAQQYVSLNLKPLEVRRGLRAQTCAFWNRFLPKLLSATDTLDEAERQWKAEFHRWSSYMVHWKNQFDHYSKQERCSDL
Assay: Inhibition of AchE in rat cortex by Ellman's method
Give bare numbers, as −log10 of the molar value.

Below, 9 compounds whose answers are already recorded.
COc1cc2c(cc1OC)C(=O)C(Oc1ccc(C(=O)CN3CCCCC3)cc1)C2 (stereo not given)    6.44
CCN(CC)CCC(=O)c1cccc(OC2Cc3cc(OC)c(OC)cc3C2=O)c1 (stereo not given)    5.63
CCN(CC)CCC(=O)c1ccc(OC2Cc3cc(OC)c(OC)cc3C2=O)cc1 (stereo not given)    9.11
CCN(CC)CCc1cccc(OC2Cc3cc(OC)c(OC)cc3C2=O)c1 (stereo not given)    5.68
COc1cc2c(cc1OC)C(=O)C(Oc1ccc(CCCN3CCCCC3)cc1)C2 (stereo not given)    6.19
CCN(C)CCc1ccc(OC2Cc3cc(OC)c(OC)cc3C2=O)cc1 (stereo not given)    7.29
COc1cc2c(cc1OC)C(=O)C(Oc1cccc(CCN3CCCCC3)c1)C2 (stereo not given)    5.81
CCN(C)CCc1cccc(OC2Cc3cc(OC)c(OC)cc3C2=O)c1 (stereo not given)    6.15
COc1cc2c(cc1OC)C(=O)C(Oc1ccc(C(=O)CCN3CCCC3)cc1)C2 (stereo not given)    8.38

Okay, now this compound:
In: Tell me the measured pIC50 of CCN(CC)CCCc1ccc(OC2Cc3cc(OC)c(OC)cc3C2=O)cc1 (stereo not given) , please.
Out: 6.56

====

Molecular target: Acetylcholinesterase (Rattus norvegicus, UniProt P37136)
Could you please mark fulfilled for values of IC50 below 500 nM and not fulfilled for values at or above it?

CCN(CC)CC(=O)c1ccc(OC2Cc3cc(OC)c(OC)cc3C2=O)cc1 (configuration not stated)    fulfilled
CCN(C)CC(=O)c1ccc(OC2Cc3cc(OC)c(OC)cc3C2=O)cc1 (configuration not stated)    fulfilled
COc1cc2c(cc1OC)C(=O)C(Oc1ccc(C(=O)CCCN3CCCCC3)cc1)C2 (configuration not stated)    not fulfilled
COc1cc2c(cc1OC)C(=O)C(Oc1ccc(C(=O)CCCN3CCCC3)cc1)C2 (configuration not stated)    fulfilled
CCN(CC)CCCCc1ccc(OC2Cc3cc(OC)c(OC)cc3C2=O)cc1 (configuration not stated)    fulfilled
CCN(CC)CCc1ccc(OC2Cc3cc(OC)c(OC)cc3C2=O)cc1 (configuration not stated)    fulfilled

In: IC50 under 500 nM? Item: CCN(CC)CCCC(=O)c1ccc(OC2Cc3cc(OC)c(OC)cc3C2=O)cc1 (configuration not stated)
Out: fulfilled

In: Similarly, COc1cc2c(cc1OC)C(=O)C(Oc1ccc(C(=O)CN3CCCC3)cc1)C2 (configuration not stated) ?
Out: fulfilled

In: Similarly, COc1cc2c(cc1OC)C(=O)C(Oc1ccc(CCCCN3CCCC3)cc1)C2 (configuration not stated) ?
Out: fulfilled

In: Similarly, COc1cc2c(cc1OC)C(=O)C(Oc1cccc(CCN3CCCC3)c1)C2 (configuration not stated) ?
Out: not fulfilled

In: Similarly, COc1cc2c(cc1OC)C(=O)C(Oc1cccc(C(=O)CCN3CCCC3)c1)C2 (configuration not stated) ?
Out: not fulfilled

In: Similarly, CCN(C)CCC(=O)c1ccc(OC2Cc3cc(OC)c(OC)cc3C2=O)cc1 (configuration not stated) ?
Out: fulfilled

====

Organism: Rattus norvegicus
Assay: Selectivity ratio of IC50 for BuchE in rat serum to IC50 for AchE in rat cortex
Assay type: cell-free
Could you please mark T for values of Ratio IC50 below 20 and F for values at or above it?

A selection of reference data follows.
CCN(CC)CCc1cccc(OC2Cc3cc(OC)c(OC)cc3C2=O)c1 (stereo not given)    T
COc1cc2c(cc1OC)C(=O)C(Oc1ccc(C(=O)CN3CCCC3)cc1)C2 (stereo not given)    T
CCN(C)CCCC(=O)c1ccc(OC2Cc3cc(OC)c(OC)cc3C2=O)cc1 (stereo not given)    F
COc1cc2c(cc1OC)C(=O)C(Oc1ccc(C(=O)CCCN3CCCCC3)cc1)C2 (stereo not given)    T

Consider the additional compound presented here.
In: Ratio IC50 under 20? Item: COc1cc2c(cc1OC)C(=O)C(Oc1ccc(CCCN3CCCC3)cc1)C2 (stereo not given)
Out: T
